pIC50: recorded values
Target: MOZ-KAT6A (Homo sapiens, UniProt Q92794, A567V)
Construct: encoding amino acid residues 507 to 778 (Uniprot Q92794-1) of human KAT6A; made in house; host or cells: E. coli BL21 DE3
Sequence (Q92794 507-778 A567V limits assumed): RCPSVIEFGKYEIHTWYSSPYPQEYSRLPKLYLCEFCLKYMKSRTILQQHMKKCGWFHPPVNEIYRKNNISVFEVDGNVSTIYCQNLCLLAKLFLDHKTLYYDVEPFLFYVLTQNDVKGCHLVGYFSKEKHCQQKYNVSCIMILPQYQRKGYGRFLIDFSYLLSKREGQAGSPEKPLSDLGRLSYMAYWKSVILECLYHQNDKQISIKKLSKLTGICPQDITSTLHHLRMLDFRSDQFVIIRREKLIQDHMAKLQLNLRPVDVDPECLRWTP
Assay: Revised Acetyltransferase Biochemical Assay, KAT6A
Details: Table 8 (MOZ-KAT6A), 1 μM Acetyl coenzyme A
// pIC50 is dimensionless: -log10 of concentration (M)

// worked examples, pIC50 included
• Cc1cc(O)cc(C(CNC(=O)C2=Nc3ccc(I)cc3S(=O)(=O)N2)c2ncco2)c1 (centres unmarked) [Example 222] = 6.88
• O=C(NCC(c1cccc(-c2ccccc2)c1)c1ncco1)C1=Nc2ccccc2S(=O)(=O)N1 (centres unmarked) [Example 158] = 5.76
• O=C(NCC(F)(F)c1ccccc1OC(F)F)C1=Nc2ccc(Cl)cc2S(=O)(=O)N1 [Example 232] = 6.60
• CC(O)c1ccc2c(c1)S(=O)(=O)NC(C(=O)NCC(c1ccccc1)c1ncco1)=N2 (centres unmarked) [Example 212] = 6.62
• O=C(NCC(c1ccccc1)c1ncco1)C1=Nc2ccc(C(F)(F)F)cc2S(=O)(=O)N1 (centres unmarked) [Example 120] = 7.77

Request: # lookup: MOZ-KAT6A (Homo sapiens, UniProt Q92794, A567V) pIC50, key = COc1ccc2c(c1)S(=O)(=O)NC(C(=O)NCC(c1cccc(Cl)c1)c1ncco1)=N2 (centres unmarked) [Example 223]
Response: 6.67

Request: # lookup: MOZ-KAT6A (Homo sapiens, UniProt Q92794, A567V) pIC50, key = Cc1cccc(C(CNC(=O)C2=Nc3ccc(Cl)cc3S(=O)(=O)N2)c2ncco2)c1 (centres unmarked) [Example 234]
Response: 7.14

Request: # lookup: MOZ-KAT6A (Homo sapiens, UniProt Q92794, A567V) pIC50, key = O=C(NCC(c1ccccc1)c1ncco1)C1=Nc2cccnc2S(=O)(=O)N1 (centres unmarked) [Example 96]
Response: 6.83

Request: # lookup: MOZ-KAT6A (Homo sapiens, UniProt Q92794, A567V) pIC50, key = O=C(NCC(c1ccccc1)c1n[nH]c(=O)o1)C1=Nc2ccc(I)cc2S(=O)(=O)N1 (centres unmarked) [Example 186]
Response: 7.62

----------
log10 IC50: recorded values
Target: TIP60-KAT5 (Homo sapiens, UniProt Q92993)
Construct: encoding amino acid residues 2 to 461 (Uniprot Q92993-2) of human KAT5 isoform; made in house; host or cells: E. coli BL21 DE3
Sequence (Q92993 2-461 isoform Q92993-2): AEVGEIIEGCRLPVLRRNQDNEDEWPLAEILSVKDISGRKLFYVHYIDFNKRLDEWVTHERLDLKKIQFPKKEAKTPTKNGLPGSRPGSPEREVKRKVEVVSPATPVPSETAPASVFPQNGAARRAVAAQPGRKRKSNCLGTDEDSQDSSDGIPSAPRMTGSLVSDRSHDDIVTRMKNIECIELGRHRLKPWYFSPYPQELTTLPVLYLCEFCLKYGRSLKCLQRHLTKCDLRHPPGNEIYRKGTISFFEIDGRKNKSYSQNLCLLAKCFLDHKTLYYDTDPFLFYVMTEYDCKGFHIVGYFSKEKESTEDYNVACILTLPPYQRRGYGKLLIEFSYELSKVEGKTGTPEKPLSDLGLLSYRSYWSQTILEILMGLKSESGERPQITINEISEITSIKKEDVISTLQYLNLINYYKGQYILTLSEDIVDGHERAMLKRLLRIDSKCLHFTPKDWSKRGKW
Experiment: Acetyltransferase biochemical assay (AlphaScreen), KAT5
Details: Table 1 (TIP60-KAT5); 0.4 μM Acetyl coenzyme A, histone H4, 10 nM enzyme
Reminder: these figures are log10 of reported IC50, in µM before transformation.

Request: # return recorded log10 IC50 for input CNC(=O)Cn1cc(-c2ccc3c(c2)S(=O)(=O)NC(C(=O)NCC(c2ccccc2)c2ncco2)=N3)cn1 (stereo not shown)
Response: 1.09

Request: # return recorded log10 IC50 for input O=C(NCC(O)c1ccccc1F)C1=Nc2ccc(I)cc2S(=O)(=O)N1 (stereo not shown)
Response: 0.31

Request: # return recorded log10 IC50 for input O=C(NCC(O)c1cccc(Cl)c1)C1=Nc2ccc(I)cc2S(=O)(=O)N1 (stereo not shown)
Response: 1.39

Request: # return recorded log10 IC50 for input O=C(NCC(c1ccccc1)c1ccccc1)C1=Nc2ccc(C3CC3)cc2S(=O)(=O)N1
Response: 1.71

Request: # return recorded log10 IC50 for input O=C(NCC(O)c1ccccc1OCc1ccccc1)C1=Nc2ccc(I)cc2S(=O)(=O)N1 (stereo not shown)
Response: 0.72

----------
IC50: recorded values
Molecular target: HBO-KAT7 (Homo sapiens, UniProt O95251)
Construct: encoding amino acid residues 325 to 611 (Uniprot 095251-1) of human KAT7; made in house; host or cells: E. coli BL21 DE3 RIL
Sequence (O95251 with tags, fused parts or gaps): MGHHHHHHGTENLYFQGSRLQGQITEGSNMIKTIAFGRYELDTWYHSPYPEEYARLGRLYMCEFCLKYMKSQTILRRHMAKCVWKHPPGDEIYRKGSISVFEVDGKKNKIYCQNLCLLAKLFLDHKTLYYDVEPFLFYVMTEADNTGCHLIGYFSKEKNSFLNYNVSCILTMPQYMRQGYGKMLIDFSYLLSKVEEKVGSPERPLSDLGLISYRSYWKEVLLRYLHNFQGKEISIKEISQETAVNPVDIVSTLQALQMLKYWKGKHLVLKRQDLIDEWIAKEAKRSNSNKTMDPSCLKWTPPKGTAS
Experiment: Acetyltransferase biochemical assay (AlphaScreen), KAT7
Details: Table 3 (HBO-KAT7); 0.4 μM Acetyl coenzyme A, histone H3.1, 40 nM enzyme
Numeric answer only, unit µM assumed.

// worked examples, IC50 included
• O=C(NCC(c1ccccc1)c1ncco1)C1=Nc2ncccc2S(=O)(=O)N1 (stereo not shown) [Example 99] = 9.16
• O=C(NCC(F)(c1ccccc1)c1ncco1)C1=Nc2ccc(Cl)cc2S(=O)(=O)N1 (stereo not shown) [Example 175] = 0.162
• O=C(NCC(c1ccccc1)c1ncco1)C1=Nc2ccc(OC(F)(F)F)cc2S(=O)(=O)N1 (stereo not shown) [Example 5] = 2.04
• O=C(NCCc1ccccc1C(F)(F)F)C1=Nc2ccc(I)cc2S(=O)(=O)N1 [Example 118] = 3.02
• O=C(NCC(c1ncco1)c1ccccc1I)C1=Nc2ccccc2S(=O)(=O)N1 (stereo not shown) [Example 174] = 7.49
• C#Cc1ccc2c(c1)S(=O)(=O)NC(C(=O)NCC(c1ccccc1)c1ncco1)=N2 (stereo not shown) [Example 42] = 0.255
• O=C(NCC(c1ccccc1)c1ncco1)C1=Nc2ccc(I)cc2S(=O)(=O)N1 (stereo not shown) [Example 41] = 0.0944
• Nc1ccc2c(c1)S(=O)(=O)NC(C(=O)NCC(c1ccccc1)c1ncco1)=N2 (stereo not shown) [Example 11] = 2.53
• COc1cccc(C(CNC(=O)C2=Nc3ccc(Cl)cc3S(=O)(=O)N2)c2ncco2)c1 (stereo not shown) [Example 176] = 0.207
• COC(=O)c1ccccc1CCNC(=O)C1=Nc2ccc(I)cc2S(=O)(=O)N1 [Example 12] = 5.87

Request: # return recorded IC50 for input O=C(NCCc1cccnc1)C1=Nc2ccc(Br)cc2S(=O)(=O)N1 [Example 80]
Response: 104

Request: # return recorded IC50 for input O=C(NCC(c1cccc(O)c1)c1ncco1)C1=Nc2ccc(Cl)cc2S(=O)(=O)N1 (stereo not shown) [Example 216]
Response: 0.063

Request: # return recorded IC50 for input O=C(NCC(O)c1cccc(F)c1)C1=Nc2ccc(I)cc2S(=O)(=O)N1 (stereo not shown) [Example 126]
Response: 12.4

----------
pIC50: recorded values
Test system: histone H3 Lysine 14 acetylation (HBO1 mediated) in U2OS cells
Test: Histone H3 Lysine 14 Acetylation Biomarker Assay (384-well, U2OS)
Assay type: cell-based
Conditions: Homo sapiens, serum free medium, 24 hours incubation
// pIC50 is dimensionless: -log10 of concentration (M)

// worked examples, pIC50 included
- O=C(NCC(c1cccc(O)c1)c1ncco1)C1=Nc2ccc(Br)cc2S(=O)(=O)N1 (stereo not shown): 5.44
- O=C(NCC(c1cccc(Cl)c1)c1ncco1)C1=Nc2ccc(I)cc2S(=O)(=O)N1 (stereo not shown): 6.05
- O=C(NCC(c1ncco1)c1ccccc1OC(F)F)C1=Nc2ccc(I)cc2S(=O)(=O)N1 (stereo not shown): 6.66

For the next question, use this molecule.
Request: # return recorded pIC50 for input O=C(NCCc1ccccc1-n1cccn1)C1=Nc2ccc(I)cc2S(=O)(=O)N1
Response: 5.48

----------
Molecular target: TIP60-KAT5 (Homo sapiens)
Construct: encoding amino acid residues 2 to 461 (Uniprot Q92993-2) of human KAT5 isoform; made in house; host or cells: E. coli BL21 DE3
Assay: Acetyltransferase biochemical assay (AlphaScreen), KAT5
Conditions: Table 1 (TIP60-KAT5); 0.4 μM Acetyl coenzyme A, histone H4, 10 nM enzyme
pIC50: recorded values
// pIC50 is dimensionless: -log10 of concentration (M)

// worked examples, pIC50 included
- Nc1ccc2c(c1)S(=O)(=O)NC(C(=O)NCC(c1ccccc1)c1ncco1)=N2 (stereo not shown): 4.93
- COC(CNC(=O)C1=Nc2ccc(I)cc2S(=O)(=O)N1)c1ccccc1OC(F)F (stereo not shown): 5.59
- COC(=O)c1ccc2c(c1)S(=O)(=O)NC(C(=O)NCC(c1ccccc1)c1ccccc1)=N2: 4.53

For the next question, use this compound.
Request: # lookup: TIP60-KAT5 (Homo sapiens) pIC50, key = O=C(NCC(c1ccccc1)c1ncco1)C1=Nc2ccc(F)cc2S(=O)(=O)N1 (stereo not shown) [Example 36]
Response: 4.71

----------
Target: TIP60-KAT5 (Homo sapiens, UniProt Q92993)
Construct: encoding amino acid residues 2 to 461 (Uniprot Q92993-2) of human KAT5 isoform; made in house; host or cells: E. coli BL21 DE3
Test: Revised Acetyltransferase Biochemical Assay, KAT5
Conditions: 10 nM KAT5, 1 μM AcCoA, 100 nM histone H4, 90 min
pIC50: −log10 of the molar value.
Tag: Criterion met if measured pIC50 is not below 5, Criterion not met if it is.

Previously resolved entries follow.
* COCc1ccccc1C(CNC(=O)C1=Nc2ccccc2S(=O)(=O)N1)c1ncco1 (centres unmarked) | Criterion not met
* O=C(NCCc1ccccc1)C1=Nc2ccc(I)cc2S(=O)(=O)N1 | Criterion met
* O=C(NCC1(c2ccccn2)CCCCC1)C1=Nc2ccc(Cl)cc2S(=O)(=O)N1 | Criterion not met

Request: Given the entry O=C(NCC(c1cccc(OCC2CC2)c1)c1ncco1)C1=Nc2ccc(I)cc2S(=O)(=O)N1 (centres unmarked) , answer whether its pIC50 meets or surpasses 5.
Response: Criterion met

Request: Given the entry Cc1cc(O)cc(C(CNC(=O)C2=Nc3ccc(I)cc3S(=O)(=O)N2)c2ncco2)c1 (centres unmarked) , answer whether its pIC50 meets or surpasses 5.
Response: Criterion met

Request: Given the entry O=C(NCC(c1ccccc1)c1n[nH]c(=O)o1)C1=Nc2ccc(I)cc2S(=O)(=O)N1 (centres unmarked) , answer whether its pIC50 meets or surpasses 5.
Response: Criterion met

Request: Given the entry O=C(NCC1(c2ccccn2)CCCC1)C1=Nc2ccc(Cl)cc2S(=O)(=O)N1 , answer whether its pIC50 meets or surpasses 5.
Response: Criterion not met

Request: Given the entry COC(=O)NC(CNC(=O)C1=Nc2ccccc2S(=O)(=O)N1)C1CCCCC1 (centres unmarked) , answer whether its pIC50 meets or surpasses 5.
Response: Criterion not met
